- target.or.test.system: Torsin-1A-interacting protein 1 (Homo sapiens)
- assay.info: compound microarray binding of lysate hLAP1 – cell lysate, small-molecule microarray, COS7 lysate, 635/667 nm fluorescence, primary screen (AID 1116)
- details: 635 nm fluorescence, higher = more signal
property.name: composite z-score

>  <chemical.string>
COC(=O)c1c(CC[C@@H](CO)NC(=O)N[C@@H](Cc2ccccc2)Cn2cc(-c3ccccn3)nn2)oc(C(=O)N2CCOCC2)c1C(=O)OC

>  <obs.value>
0.167

$$$$
>  <chemical.string>
CO[C@H]1O[C@H](CO)[C@@H](OC(=O)Nc2ccc(Oc3ccccc3)cc2)[C@H](OC(=O)Nc2ccc3c(c2)OCO3)[C@@H]1OC(=O)Nc1ccc2c(c1)OCO2

>  <obs.value>
1.37

$$$$
>  <chemical.string>
CCOC(=O)C1=CC[C@@H](c2ccc(C(F)(F)F)cc2)N(S(=O)(=O)c2ccc(C)cc2)[C@H]1c1ccccc1

>  <obs.value>
1.51

$$$$

====

- target.or.test.system: Pro-neuregulin-1, membrane-bound isoform (Homo sapiens) (UniProt Q02297)
- Sequence (Q02297 whole entry, looked up, canonical isoform): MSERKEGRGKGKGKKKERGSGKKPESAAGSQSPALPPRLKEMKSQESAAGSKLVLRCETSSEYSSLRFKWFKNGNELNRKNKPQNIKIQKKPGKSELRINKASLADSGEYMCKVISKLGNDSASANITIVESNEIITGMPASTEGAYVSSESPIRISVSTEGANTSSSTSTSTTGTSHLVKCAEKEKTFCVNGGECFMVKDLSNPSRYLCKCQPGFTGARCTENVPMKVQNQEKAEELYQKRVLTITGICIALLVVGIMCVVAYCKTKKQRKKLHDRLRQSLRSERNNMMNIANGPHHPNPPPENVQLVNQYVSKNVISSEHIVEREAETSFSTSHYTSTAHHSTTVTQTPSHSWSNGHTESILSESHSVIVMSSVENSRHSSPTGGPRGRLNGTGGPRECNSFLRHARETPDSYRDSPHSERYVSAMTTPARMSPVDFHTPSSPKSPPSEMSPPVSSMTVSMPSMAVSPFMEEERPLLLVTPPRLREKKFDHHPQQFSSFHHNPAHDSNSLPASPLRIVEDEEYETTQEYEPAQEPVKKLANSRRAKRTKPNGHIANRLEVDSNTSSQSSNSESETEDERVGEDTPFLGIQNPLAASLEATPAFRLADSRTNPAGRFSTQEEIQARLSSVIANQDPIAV
- assay.info: small molecules binding neuregulin-1 protein – biochemical, small-molecule microarray, fluorescence 635/667, psychiatric disease protein project, primary screen (AID 1075);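 further: score combines 667 nm spot fluorescence with signal to noise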
- details: NRG1 binding, 635 nm fluorescence, higher = more signal
Quick reference for composite z-score among some compounds
property.name: composite z-score

>  <compound>
[N-]=[N+]=NCc1ccccc1C[C@@]1(C(=O)NCC(O)CO)N=C(c2ccc(OCCCO)cc2)O[C@@H]1c1ccccc1 (stereo partly drawn)

>  <obs.value>
0.768

$$$$
>  <compound>
CC1CC/C=C\[C@H]2OC34C=CCN(c5ccc6ccccc6c5)C(=O)[C@H]3N(CCO)C(=O)[C@@H]4C2C(=O)O1 (stereo partly drawn)

>  <obs.value>
-0.378

$$$$
>  <compound>
[N-]=[N+]=Nc1ccccc1C[C@]1(C(=O)N2CCCCC2)COC(c2ccc(OCCCO)cc2)=N1

>  <obs.value>
1.64

$$$$
>  <compound>
CCCC[C@@H]1C[C@H]1[C@@H](NC(=O)c1cccnc1)c1ccc(Cl)cc1

>  <obs.value>
-0.549

$$$$
>  <compound>
CC(C)(C)OC(=O)CC[C@]1(C(N)=O)N=C(c2ccc(OCCCO)cc2)O[C@H]1c1ccccc1

>  <obs.value>
2.53

$$$$
>  <compound>
CCCC[C@H]1C[C@@H]1[C@@H]1N(P(=O)(c2ccccc2)c2ccccc2)C[C@@](O)(c2ccccc2)CC12CC2

>  <obs.value>
0.862

$$$$
>  <compound>
O=C(CS)NCCCCCNC(=O)[C@H]1C[C@H]2C(=O)NCC(=O)N2[C@H]1c1ccc(O)cc1

>  <obs.value>
-0.83

$$$$
>  <compound>
O=C(NC1CC1)[C@@H]1c2ccccc2C(=O)N(C2Cc3ccccc3C2)[C@H]1c1ccc(CO)cc1

>  <obs.value>
0.639

$$$$

====

- Tested on: Human papillomavirus type 1a E7 protein (residues 1-88)
- assay.info: HPV1a E7 small-molecule binders, primary screen, biochemical, small-molecule microarray, residues 1-88, 635 nm (AID 1129)
- details: small-molecule microarray binding, fluorescence 635 nm; higher = more signal
Decide using composite z-score: a value greater than or equal to 1 is label 1, a smaller one is label 0.

>  <molecule>
[N-]=[N+]=NCc1ccccc1C[C@@]1(C(=O)NCC(O)CO)N=C(c2ccc(OCCCO)cc2)O[C@@H]1c1ccccc1 (some centres not stated)

>  <target.or.test.system>
Human papillomavirus type 1a E7 protein (residues 1-88)

>  <class.label>
label 0

$$$$
>  <molecule>
C=CCC(OC(C)=O)[C@@H]1[C@@H](N(Cc2ccc(-c3cccc(C(F)(F)F)c3)o2)C(=O)Cc2ccc(OC)cc2)c2cc(OCCCO)ccc2N1C(=O)c1ccc2ccccc2c1 (some centres not stated)

>  <target.or.test.system>
Human papillomavirus type 1a E7 protein (residues 1-88)

>  <class.label>
label 0

$$$$
>  <molecule>
NCCCCCNC(=O)[C@H]1C[C@H]2C(=O)N3CCC[C@H]3C(=O)N2[C@H]1c1ccc(O)cc1

>  <target.or.test.system>
Human papillomavirus type 1a E7 protein (residues 1-88)

>  <class.label>
label 1

$$$$
>  <molecule>
[N-]=[N+]=NCc1ccccc1[C@@H]1OC(c2ccc(OCCCO)cc2)=N[C@]1(CCS(=O)(=O)c1ccccc1)C(=O)N1CCOCC1

>  <target.or.test.system>
Human papillomavirus type 1a E7 protein (residues 1-88)

>  <class.label>
label 1

$$$$
>  <molecule>
COc1cc2c(cc1OC)CN(C(=O)[C@H]1[C@@H]3C(=O)O[C@@H](c4ccccc4)[C@@H](c4ccccc4)N3[C@@H](c3ccccc3OCCO)[C@]13C(=O)Nc1ccc(C#CCCO)cc13)CC2

>  <target.or.test.system>
Human papillomavirus type 1a E7 protein (residues 1-88)

>  <class.label>
label 1

$$$$
>  <molecule>
COCC(=C=CC[C@H](O)c1cccc(OCCO)c1)CCO

>  <target.or.test.system>
Human papillomavirus type 1a E7 protein (residues 1-88)

>  <class.label>
label 0

$$$$
>  <molecule>
[N-]=[N+]=Nc1ccccc1[C@H]1OC(c2ccc(OCCCO)cc2)=N[C@@]1(Cc1ccccc1)C(=O)N1CCOCC1

>  <target.or.test.system>
Human papillomavirus type 1a E7 protein (residues 1-88)

>  <class.label>
label 1

$$$$
